Overview of reported percent inhibition of viability across a group of compounds:
System: DERL-7 (IL-2 2.5 ng/mL);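 note: normalised to DMSO-only wells as negative and benzethonium chloride as positive control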
assay overview: percent inhibition of viability; higher = more inhibition
condition: 72 h; 10 nM
property measured: percent inhibition of viability

COc1cccc2cc(-c3nc([C@H]4CC[C@H](C(=O)O)CC4)n4ncnc(N)c34)[nH]c12 [OSI-027] (max concentration tested 10000 nM): -0.27%
CNC(=O)c1cc(COc2nnc(Nc3ccc(Cl)cc3)c3ccoc23)ccn1 [Telatinib] (max concentration tested 10000 nM): -0.52%
CCc1cncnc1N1CCN(Cc2nc3ccc(C(F)(F)F)cc3[nH]2)CC1 (max concentration tested 10000 nM): 7.18%
CC1(C)CNc2cc(NC(=O)c3cccnc3NCc3ccncc3)ccc21 [Motesanib] (max concentration tested 10000 nM): 2.19%
Cc1cnc(Nc2ccc(OCCN3CCCC3)cc2)nc1Nc1cccc(S(=O)(=O)NC(C)(C)C)c1 (max concentration tested 10000 nM): 0.3%
CC[C@H](NC(=O)[C@H](C)NC)C(=O)N1C[C@@H](O)C[C@H]1Cc1c(-c2[nH]c3cc(F)ccc3c2C[C@@H]2C[C@H](O)CN2C(=O)[C@H](CC)NC(=O)[C@H](C)NC)[nH]c2cc(F)ccc12 [Birinapant] (max concentration tested 1000 nM): 23.2%
